Test system: EPHB2
condition notes: concentration: 1 μM,replicates: in singlicate; n = 1;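 further: KINOMEscan kinase panel screen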
Binary label based on %Inh with cut-off 10%: below gives true, not below gives false.

Reference set, count: 8
{"compound": "O=C(NCC1CC1)c1ccc(-c2cc(C(=O)NC3CC3)ccc2F)cc1 [GW810445]", "tested target": "EPHB2", "classification": "true"}
{"compound": "c1ccc(Oc2ccc(Nc3ccnc4ccc(-c5ccccn5)cc34)cc2)cc1 [GW407034]", "tested target": "EPHB2", "classification": "true"}
{"compound": "CCN1CCN(CCCC(=O)Nc2n[nH]c3nc(-c4ccc(O)cc4)c(Br)cc23)CC1 [SB-731579]", "tested target": "EPHB2", "classification": "true"}
{"compound": "Cn1ccc2ncnc(Oc3ccc(NC(=O)Nc4cc(C(C)(C)C)on4)c(Cl)c3)c21", "tested target": "EPHB2", "classification": "false"}
{"compound": "FC(F)(F)c1cc(Br)cc(Nc2nccc(-c3cnn4ncccc34)n2)c1 [GW810578]", "tested target": "EPHB2", "classification": "true"}
{"compound": "CS(=O)c1ccc(-c2coc3ccc(-c4n[nH]c(=O)o4)cc23)cc1 (stereo not shown)", "tested target": "EPHB2", "classification": "false"}
{"compound": "NC(=O)Nc1sc(-c2ccc(F)cc2)cc1C(N)=O [GW789449]", "tested target": "EPHB2", "classification": "true"}
{"compound": "CN(c1ccccc1CNc1nc(Nc2ccc3c(c2)CC(=O)N3)ncc1C(F)(F)F)S(C)(=O)=O", "tested target": "EPHB2", "classification": "true"}

Exam item: hey, is %Inh for Cn1ccc2ncnc(Oc3ccc(NC(=O)Nc4cnn(C(C)(C)C)c4)c(Cl)c3)c21 lower than 10% or not?
Marked response: false

Exam item: hey, is %Inh for O=C1NCCc2[nH]c(-c3ccncc3)cc21 lower than 10% or not?
Marked response: false

Exam item: hey, is %Inh for Cn1ccc2ncnc(Oc3ccc(NC(=O)Nc4cccc(C(F)(F)F)c4)c(F)c3)c21 lower than 10% or not?
Marked response: false

Exam item: hey, is %Inh for C[C@@H](Oc1cc(-n2cnc3ccc(-c4ccncc4)cc32)sc1C(N)=O)c1ccccc1Cl [GSK483724] lower than 10% or not?
Marked response: true

Exam item: hey, is %Inh for Cc1cccc2c(-c3ccncc3)c(-c3ccc(F)cc3)nn12.Cl [GW461487] lower than 10% or not?
Marked response: false

---

molecules and their reported %Inh
System: SGK2
condition notes: concentration: 1 μM,replicates: in singlicate; n = 1
For clarity, give the value followed by its unit.

{"structure": "Cn1ccc2ncnc(Oc3ccc(NC(=O)Nc4cccc(C(F)(F)F)c4)c(F)c3)c21", "%Inh": "0%"}

Record C[C@@H]1CCN(C(=O)N2CCCC2)C[C@@H]1N(C)c1ncnc2[nH]ccc12 / SGK2, %Inh recorded as 3%

Record c1ccc(Oc2ccc(Nc3ccnc4ccc(-c5ccccn5)cc34)cc2)cc1 / SGK2, %Inh recorded as 0%

---

molecules and their reported %Inh
System: MST1
Construct: gene STK4
condition notes: concentration: 1 μM,replicates: in singlicate; n = 1
Output spec: scalar in %, unitless text.

The following molecules have reported results that may help.
{"molecule": "O=C(Nc1cccc(Oc2ccc3nccn3n2)c1)Nc1cccc(C(F)(F)F)c1", "%Inh (%)": 6}
{"molecule": "CC(=O)c1c(-c2ccncc2)[nH]c(-c2ccncc2)c1C [GW493036]", "%Inh (%)": 11}
{"molecule": "C[C@@H](Oc1cc(-n2cnc3ccc(-c4ccncc4)cc32)sc1C(N)=O)c1ccccc1Cl [GSK483724]", "%Inh (%)": 24}
{"molecule": "CS(=O)(=O)Nc1ccc(-c2ccnc3[nH]ccc23)cc1 [GSK993273]", "%Inh (%)": 11}
{"molecule": "O=C(NCC1CC1)c1ccc(-c2cc(C(=O)NC3CC3)ccc2F)cc1 [GW810445]", "%Inh (%)": 55}

Measured %Inh, Cn1ccc2ncnc(Oc3ccc(NC(=O)Nc4cccc(C(F)(F)F)c4)c(Cl)c3)c21 : 16
